test system: K4 kissing-loop RNA reporter; assay: apparent KD of K4 kissing-loop reporter; higher = weaker reporter binding; settings: Eterna round: R107; input ligand: none;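 further: bound reporter read as fluorescence of individual clusters on recovered sequencing chips by microscopy, with normalized cluster intensities fitted with a binding model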
apparent KD of K4 kissing-loop reporter of 90 nM or higher: condition met. Under 90 nM: condition not met.

Q) Reported apparent KD of K4 kissing-loop reporter at or above 90 nM? AAUAGGGAUAGUGAUGUUAUCCCUUAUGAUACCAGUGCCAUCGGACACCCUUGGCAGCAUACGGGCAGUGAUGUUGUUCUUGGAG [Exclusion Theophylline A GF 15]
A) condition not met

Q) Could you please find out whether UACUAUAUUCUGUCGUUUUUAUUAGUUUGUCAGGAUAUCGUUUAUUCGAGAAGGGACACUAUCUAGUGAUGUUAGAUAUUUCUUU [JR_Nu3_ExcFMNA_Sub030] has apparent KD of K4 kissing-loop reporter that meets 90 nM or exceeds it?
A) condition met

Q) Could you verify whether the entry AAUAAGGUCGCCGAUACCAGCGCGGGCAGAGCAAAGCUCUGCCCGGCAGUGAUGUUGCCGCGCCCUUGGCAGCGGUGGCACGACC [Omei KL Theo B SS C v7] shows apparent KD of K4 kissing-loop reporter of no less than 90 nM?
A) condition not met

Q) Does the reported apparent KD of K4 kissing-loop reporter for CCAUCGCUAUUCGAUACCAGCUCCUUAGUGAUGUUAAGGUUUUACCCUCUGUAGGAGGGAAGCCCUUGGCAGCGAGUAGUGAUGG [#03 K4 Theophylline B Same State] fall at or above the 90 nM mark?
A) condition met

Q) Item ACGGUUUCCACGGCCGCCACUUGCGCAUUAGAUCUUACCCUAGGAGUGAUGUUCCAUACAAGUACAAGGACCGGGUGGGACAUAA [theeternabot_sameState_KL_Trp_B_28] with apparent KD of K4 kissing-loop reporter of 90 nM or above?
A) condition met

Taken from the supplement of paper PMC9170038.
